IC50 for assorted compounds
biological target: ACC2 (Homo sapiens (Human), UniProt O00763); assay: In vitro ACC inhibition assay (ADP-Glo), ACC2; format: biochemical; conditions: ND630 versus RJ compounds; isoform not given; read-out: IC50 (μM) ND630/RJ-cmps(%)
Sequence (O00763 whole entry, species assumed, canonical isoform): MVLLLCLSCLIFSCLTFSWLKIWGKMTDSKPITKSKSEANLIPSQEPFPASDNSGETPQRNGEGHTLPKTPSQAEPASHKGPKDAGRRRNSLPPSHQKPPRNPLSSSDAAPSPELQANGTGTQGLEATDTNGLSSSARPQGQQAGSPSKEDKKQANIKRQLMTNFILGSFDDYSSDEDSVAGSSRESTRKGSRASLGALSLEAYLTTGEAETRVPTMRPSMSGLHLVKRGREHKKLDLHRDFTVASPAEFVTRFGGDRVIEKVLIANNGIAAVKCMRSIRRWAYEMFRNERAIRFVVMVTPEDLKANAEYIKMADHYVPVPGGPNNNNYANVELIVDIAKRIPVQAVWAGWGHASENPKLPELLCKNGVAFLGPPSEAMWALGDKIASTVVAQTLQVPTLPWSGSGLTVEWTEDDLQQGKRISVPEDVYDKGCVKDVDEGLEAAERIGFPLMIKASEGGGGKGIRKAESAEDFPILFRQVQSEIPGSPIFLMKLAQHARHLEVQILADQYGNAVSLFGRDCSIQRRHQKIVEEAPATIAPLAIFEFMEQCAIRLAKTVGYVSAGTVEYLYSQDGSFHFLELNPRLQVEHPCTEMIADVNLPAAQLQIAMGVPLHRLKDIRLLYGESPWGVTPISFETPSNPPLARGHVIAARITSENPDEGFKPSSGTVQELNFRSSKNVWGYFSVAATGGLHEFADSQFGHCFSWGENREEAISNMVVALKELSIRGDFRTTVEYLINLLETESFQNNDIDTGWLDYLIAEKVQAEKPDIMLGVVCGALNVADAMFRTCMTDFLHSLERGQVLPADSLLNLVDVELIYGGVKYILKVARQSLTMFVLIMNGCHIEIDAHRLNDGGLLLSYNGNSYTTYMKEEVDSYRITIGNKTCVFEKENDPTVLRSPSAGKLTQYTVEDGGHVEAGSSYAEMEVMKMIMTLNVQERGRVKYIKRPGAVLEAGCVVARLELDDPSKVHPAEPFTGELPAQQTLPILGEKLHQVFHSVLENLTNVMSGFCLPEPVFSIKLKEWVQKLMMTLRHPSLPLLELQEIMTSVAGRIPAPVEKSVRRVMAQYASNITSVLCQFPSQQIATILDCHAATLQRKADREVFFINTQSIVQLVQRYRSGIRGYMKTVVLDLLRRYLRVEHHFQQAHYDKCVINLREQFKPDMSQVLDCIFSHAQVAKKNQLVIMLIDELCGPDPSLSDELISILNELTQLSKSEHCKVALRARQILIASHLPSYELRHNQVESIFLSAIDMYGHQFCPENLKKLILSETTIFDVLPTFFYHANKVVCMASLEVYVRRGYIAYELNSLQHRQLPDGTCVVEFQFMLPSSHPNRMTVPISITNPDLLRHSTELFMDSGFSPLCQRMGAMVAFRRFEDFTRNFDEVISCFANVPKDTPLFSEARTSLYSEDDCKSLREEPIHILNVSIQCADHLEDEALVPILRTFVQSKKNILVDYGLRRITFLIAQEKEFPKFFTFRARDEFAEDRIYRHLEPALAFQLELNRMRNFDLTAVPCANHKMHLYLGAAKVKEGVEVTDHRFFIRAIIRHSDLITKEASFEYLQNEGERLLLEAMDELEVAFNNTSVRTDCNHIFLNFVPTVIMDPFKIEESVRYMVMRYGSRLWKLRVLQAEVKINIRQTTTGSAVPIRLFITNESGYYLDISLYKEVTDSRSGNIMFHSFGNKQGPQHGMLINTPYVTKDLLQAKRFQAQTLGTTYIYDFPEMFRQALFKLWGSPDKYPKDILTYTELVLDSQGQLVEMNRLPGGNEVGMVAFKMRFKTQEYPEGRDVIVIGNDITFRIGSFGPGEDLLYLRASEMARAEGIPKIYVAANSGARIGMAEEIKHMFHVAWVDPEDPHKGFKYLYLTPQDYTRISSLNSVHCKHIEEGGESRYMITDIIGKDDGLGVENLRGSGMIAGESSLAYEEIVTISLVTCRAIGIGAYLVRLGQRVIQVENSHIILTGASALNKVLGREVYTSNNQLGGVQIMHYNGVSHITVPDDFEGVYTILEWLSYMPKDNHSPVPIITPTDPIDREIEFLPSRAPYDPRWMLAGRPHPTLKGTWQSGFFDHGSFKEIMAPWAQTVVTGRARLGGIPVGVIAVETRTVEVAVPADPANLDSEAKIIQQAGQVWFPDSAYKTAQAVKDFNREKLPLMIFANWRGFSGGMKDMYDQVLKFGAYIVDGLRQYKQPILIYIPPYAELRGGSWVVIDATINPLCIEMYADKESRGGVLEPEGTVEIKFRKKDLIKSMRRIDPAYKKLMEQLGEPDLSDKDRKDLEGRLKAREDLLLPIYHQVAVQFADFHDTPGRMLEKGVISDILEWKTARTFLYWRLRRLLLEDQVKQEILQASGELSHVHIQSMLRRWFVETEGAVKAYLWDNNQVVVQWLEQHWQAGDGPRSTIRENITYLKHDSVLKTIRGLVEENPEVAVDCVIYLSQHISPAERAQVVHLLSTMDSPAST

See these solved cases before continuing.
[[record]]
compound = "COc1ccccc1C(Cn1c(=O)n(C2(C(=O)O)CC2)c(=O)c2c(C)c(Br)sc21)OC1CCOCC1 (stereo not shown)"
val = "0.005 to 0.01 µM"

[[record]]
compound = "COc1ccccc1C(Cn1c(=O)n(C(C)(C)C(=O)O)c(=O)c2cc(C)c(Br)cc21)OC1CCOCC1 (stereo not shown)"
val = "0.005 to 0.01 µM"

[[record]]
compound = "COc1ccccc1[C@H](Cn1c(=O)n(C2(C(=O)O)CC2)c(=O)c2c(C)c(-c3cnco3)sc21)OC1CCOCC1"
val = "0.005 to 0.01 µM"

[[record]]
compound = "COc1ccccc1[C@H](Cn1c(=O)n(C(C)(C)C(=O)O)c(=O)c2c(C)c(-c3ncco3)sc21)OC1CCOCC1 [Example 38]"
val = "0.005 to 0.01 µM"


Specify measured IC50 for COc1ccccc1C(Cn1c(=O)n(C2(C(=O)O)CCCC2)c(=O)c2c(C)c(-c3ncco3)sc21)OC1CCOCC1 (stereo not shown) [Example 36] .
0.003 to 0.005 µM

Read off the recorded IC50 for COCc1sc2c(c1C)c(=O)n(C1(C(=O)O)CCCC1)c(=O)n2C[C@H](CC1CCOCC1)c1ccccc1OC
0.003 to 0.005 µM

Fill in reported IC50 for this entry: COc1ccccc1[C@H](Cn1c(=O)n(C2(C(=O)O)CC2)c(=O)c2cc(-c3ncco3)ccc21)OC1CCOCC1
0.005 to 0.01 µM
